# system: NAMPT (Homo sapiens, UniProt P43490)
# Sequence (P43490 whole entry, species assumed): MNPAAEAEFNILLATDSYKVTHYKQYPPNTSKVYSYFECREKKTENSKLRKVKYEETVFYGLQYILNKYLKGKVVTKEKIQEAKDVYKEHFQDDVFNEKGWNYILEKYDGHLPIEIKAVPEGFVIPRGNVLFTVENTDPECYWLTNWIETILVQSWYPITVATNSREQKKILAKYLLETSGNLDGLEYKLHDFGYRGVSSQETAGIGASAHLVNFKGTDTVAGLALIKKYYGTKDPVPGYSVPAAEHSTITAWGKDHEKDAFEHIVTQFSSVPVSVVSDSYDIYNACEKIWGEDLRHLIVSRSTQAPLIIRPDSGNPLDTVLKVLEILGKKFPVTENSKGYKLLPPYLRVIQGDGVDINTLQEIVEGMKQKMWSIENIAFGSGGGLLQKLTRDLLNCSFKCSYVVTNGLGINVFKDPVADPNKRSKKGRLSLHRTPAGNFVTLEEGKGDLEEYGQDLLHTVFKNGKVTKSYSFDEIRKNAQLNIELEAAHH
# protocol notes: NAMPT enzyme activity assay coupled with NMNAT1 and ADH (NADH fluorescence)
# test conditions: AUC of dose-response curve (0.1, 0.3, 1, 3, 10 μM) relative to AUC of NAT (NAT = 1); 1 μM NAMPT, 200 μM NAM
Recorded Relative activation of NAMPT activity, one value per entry.
API note: the answer field is a bare number with no unit suffix.

# annotated cases, reported Relative activation of NAMPT activity shown
INSERT INTO assay_data (chemical_smiles, outcome_measure, reading) VALUES
  ('COc1ccc(NC(=O)COc2ccccc2C(C)(C)C)cc1', 'Relative activation of NAMPT activity', '−0.168'),
  ('CC(C)(C)c1ccccc1OCC(=O)Nc1ccc(B(O)O)cc1', 'Relative activation of NAMPT activity', 0.1217),
  ('CC(C)(C)c1ccccc1OCC(=O)Nc1ccc(O)cc1F', 'Relative activation of NAMPT activity', 0.03898),
  ('CC(C)(C)c1ccc(C(N)=O)cc1OCC(=O)Nc1ccc(O)cc1', 'Relative activation of NAMPT activity', 2.041);

The record that follows has no Relative activation of NAMPT activity shown yet.
Q) Look up Relative activation of NAMPT activity with NAMPT (Homo sapiens, UniProt P43490) for this compound: COc1ccc(OCC(=O)Nc2ccc(O)cc2)c(C(C)(C)C)c1
A) 1.382

----------
# system: NAMPT (Homo sapiens, UniProt P43490)
# protocol notes: NAMPT enzyme activity assay coupled with NMNAT1 and ADH (NADH fluorescence)
# test conditions: AUC of dose-response curve (0.1, 0.3, 1, 3, 10 μM) relative to AUC of NAT (NAT = 1); 1 μM NAMPT, 200 μM NAM
outcome measure: Relative activation of NAMPT activity
API note: the answer field is a bare number with no unit suffix.

# annotated cases, reported Relative activation of NAMPT activity shown
INSERT INTO measurements (chemical_smiles, system, reading) VALUES
  ('CC(C)(C)c1ccccc1OCC(=O)Nc1ccc(Cl)cc1', 'NAMPT (Homo sapiens, UniProt P43490)', '−0.1983'),
  ('CC(C)(C)c1ccccc1OCC(=O)Nc1ccc(O)c(CO)c1', 'NAMPT (Homo sapiens, UniProt P43490)', '−0.1983');

The record that follows has no Relative activation of NAMPT activity shown yet.
Q) Return reported Relative activation of NAMPT activity; argument: CC(C)(C)OC(=O)Nc1ccc(NC(=O)COc2ccccc2C(C)(C)C)cc1
A) −0.1978
